Target: ECE (Cavia porcellus, UniProt P97739)
Construct: tissue Keystone Biologicals, Cleveland, Ohio; host or cells: frozen guinea pig lungs; lubrol PX-treated lung membranes
Sequence (P97739 1-754): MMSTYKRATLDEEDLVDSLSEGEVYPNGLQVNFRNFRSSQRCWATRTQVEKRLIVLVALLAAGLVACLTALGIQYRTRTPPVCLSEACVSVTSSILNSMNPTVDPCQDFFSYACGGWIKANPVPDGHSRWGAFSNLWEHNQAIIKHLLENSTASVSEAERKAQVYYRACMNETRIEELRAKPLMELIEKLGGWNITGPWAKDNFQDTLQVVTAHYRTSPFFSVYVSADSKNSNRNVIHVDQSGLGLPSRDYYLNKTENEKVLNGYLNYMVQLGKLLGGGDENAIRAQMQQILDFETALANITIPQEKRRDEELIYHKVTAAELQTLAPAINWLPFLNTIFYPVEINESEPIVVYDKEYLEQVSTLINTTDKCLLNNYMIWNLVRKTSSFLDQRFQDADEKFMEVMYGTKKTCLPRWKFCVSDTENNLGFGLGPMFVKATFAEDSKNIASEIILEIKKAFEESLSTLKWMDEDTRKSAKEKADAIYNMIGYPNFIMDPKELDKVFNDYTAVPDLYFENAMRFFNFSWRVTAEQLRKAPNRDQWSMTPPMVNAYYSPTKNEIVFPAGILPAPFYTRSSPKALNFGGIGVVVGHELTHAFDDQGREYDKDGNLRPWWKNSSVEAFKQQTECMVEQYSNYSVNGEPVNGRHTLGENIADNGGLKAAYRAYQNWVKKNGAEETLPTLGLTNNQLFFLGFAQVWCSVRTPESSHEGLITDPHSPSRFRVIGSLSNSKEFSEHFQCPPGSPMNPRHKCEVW
Assay: In vitro ECE assay (inhibition of [125I]BET-1 to [125I]ET-1 conversion, lubrol-treated guinea pig lung membrane)
Type: biochemical
Conditions: L-GPLGM, table of additional compounds, read-out: IC50 (in vitro ECE inhibition activity)
Measured metric: IC50 (nM)

1 = CCC(C)C(NC(=O)OCc1ccccc1)C(=O)NC(Cc1ccccc1)P(=O)(O)CC(C(=O)N[C@@H](Cc1c[nH]c2ccccc12)C(=O)O)C(C)C (some centres unmarked)
2 = CCC(C)C(N)C(=O)NC(Cc1ccccc1)P(=O)(O)CC(C(=O)N[C@@H](Cc1c[nH]c2ccccc12)C(=O)O)C(C)C (some centres unmarked)
3 = O=C(NC(Cc1ccccc1)P(=O)(O)CC1(C(=O)N[C@@H](Cc2c[nH]c3ccccc23)C(=O)O)CCCC1)OCc1ccccc1 (some centres unmarked)
Please order the records by their reported IC50, lowest number first. As an answer, provide the labels arranged in the order called for. 3, 1, 2
